B1: F1*; the commonest letter at each place (parent)
chain: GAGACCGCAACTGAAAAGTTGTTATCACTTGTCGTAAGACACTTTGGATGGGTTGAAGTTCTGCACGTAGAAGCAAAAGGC

- Variants of: B1
- ASSAY_COMMENT: fraction ligated after 30 min (ligated reads / total reads); higher = more ligase activity
- TEST_CONTEXT: with F1*sub RNA substrate (template-directed ligation), 42 °C
Answer condition not met if fraction ligated is under 0.8, and condition met if it is 0.8 or more.

Is it the case that C28G A56G has fraction ligated reaching or exceeding 0.8?
condition not met

Is it the case that A48C T49G has fraction ligated reaching or exceeding 0.8?
condition not met

Is it the case that T32C C42T has fraction ligated reaching or exceeding 0.8?
condition met

Is it the case that T23A G47C has fraction ligated reaching or exceeding 0.8?
condition not met

Is it the case that T32A C33T has fraction ligated reaching or exceeding 0.8?
condition met

Is it the case that A36G T45C has fraction ligated reaching or exceeding 0.8?
condition not met

Is it the case that T43G T45G has fraction ligated reaching or exceeding 0.8?
condition not met

Is it the case that A39T T49A has fraction ligated reaching or exceeding 0.8?
condition not met

Is it the case that A48C has fraction ligated reaching or exceeding 0.8?
condition not met

Is it the case that C33T T45A has fraction ligated reaching or exceeding 0.8?
condition not met

Is it the case that T35G A36T has fraction ligated reaching or exceeding 0.8?
condition met

Is it the case that C26G G47C has fraction ligated reaching or exceeding 0.8?
condition not met

Is it the case that G50A G55C has fraction ligated reaching or exceeding 0.8?
condition not met

Is it the case that T44G has fraction ligated reaching or exceeding 0.8?
condition met

Is it the case that T45A G47T has fraction ligated reaching or exceeding 0.8?
condition not met

Is it the case that A24T T43G has fraction ligated reaching or exceeding 0.8?
condition not met
